molecular target: Vasopressin V1 receptor (Rattus norvegicus, UniProt P48974+P30560); assay: Inhibition of radioligand [3H]AVP binding to the vasopressin V1 receptor in rat liver tissue
Observation Type: IC50 (nM)

Recorded IC50 for CC1CCC(=O)N1[C@H]1C[C@H]2CC[C@]1(CS(=O)(=O)N1CCC3(CCc4ccccc43)CC1)C2(C)C (some centres not stated) on Vasopressin V1 receptor (Rattus norvegicus, UniProt P48974+P30560) was 3500

(A) CC1(C)[C@@H]2CC[C@@]1(CS(=O)(=O)N1CCC3(C=Cc4ccccc43)CC1)[C@@](O)(CN1C(=O)CNC1=O)C2
(B) CC1(C)[C@@H]2CC[C@@]1(CS(=O)(=O)N1CCC3(CCc4ccccc43)CC1)[C@@H](NC(=O)CC1CCCNC1)C2 (some centres not stated)
Q) # returns the entry with the larger IC50; inputs A and B Give the label of your selection.
A) A
(A: 2700 nM, B: 1500 nM)
